System: tetA promoter (PtetA)-lacZ reporter in E. coli KM3
Type: cell-based
PARTICULARS: Table 4; tribenuron 20 μg/ml (20 ppm); 48 hrs at 30° C.
Label fulfilled when relative β-galactosidase activity, inducer Tb is at or above 2; otherwise label not fulfilled.

input: hey, is relative β-galactosidase activity, inducer Tb for this one >= 2? L1-20: library L1 hit, sulfonylurea-responsive TetR(B) variant, SEQ ID NO: 6 (protein, Sulfonylurea responsive repressor L1-20) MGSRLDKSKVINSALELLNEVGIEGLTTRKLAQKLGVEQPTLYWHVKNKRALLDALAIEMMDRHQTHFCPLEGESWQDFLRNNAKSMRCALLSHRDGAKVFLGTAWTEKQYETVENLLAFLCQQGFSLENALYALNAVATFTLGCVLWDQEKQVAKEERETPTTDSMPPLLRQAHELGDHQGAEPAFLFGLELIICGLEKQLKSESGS
output: fulfilled

input: Can you handle L1-24: library L1 hit, sulfonylurea-responsive TetR(B) variant (protein, Sulfonylurea responsive repressor L1-24) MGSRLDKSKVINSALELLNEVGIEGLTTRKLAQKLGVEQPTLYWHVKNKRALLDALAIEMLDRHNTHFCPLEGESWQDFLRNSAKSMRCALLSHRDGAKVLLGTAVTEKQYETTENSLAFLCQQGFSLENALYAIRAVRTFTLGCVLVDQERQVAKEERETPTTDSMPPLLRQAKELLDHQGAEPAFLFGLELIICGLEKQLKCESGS next?
output: not fulfilled

input: Subsequent entry: L1-7: library L1 hit, sulfonylurea-responsive TetR(B) variant, SEQ ID NO: 4 (protein, Sulfonylurea responsive repressor L1-07) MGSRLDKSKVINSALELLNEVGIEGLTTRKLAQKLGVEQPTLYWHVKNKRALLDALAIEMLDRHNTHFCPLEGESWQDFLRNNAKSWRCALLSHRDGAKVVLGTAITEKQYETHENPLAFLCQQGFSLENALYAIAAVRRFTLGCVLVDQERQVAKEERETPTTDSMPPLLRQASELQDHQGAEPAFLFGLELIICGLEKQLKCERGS
output: not fulfilled

input: Next molecule: L1-9: library L1 hit, sulfonylurea-responsive TetR(B) variant, parent of L2 and L4 (protein, Sulfonylurea responsive repressor L1-09) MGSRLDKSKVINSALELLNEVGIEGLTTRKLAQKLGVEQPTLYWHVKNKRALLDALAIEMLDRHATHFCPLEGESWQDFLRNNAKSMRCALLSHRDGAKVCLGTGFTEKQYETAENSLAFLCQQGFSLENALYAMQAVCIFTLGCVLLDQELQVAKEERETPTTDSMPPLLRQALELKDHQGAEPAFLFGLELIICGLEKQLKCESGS
output: not fulfilled

input: Now consider L1-38: library L1 hit, sulfonylurea-responsive TetR(B) variant (protein, Sulfonylurea responsive repressor L1-38) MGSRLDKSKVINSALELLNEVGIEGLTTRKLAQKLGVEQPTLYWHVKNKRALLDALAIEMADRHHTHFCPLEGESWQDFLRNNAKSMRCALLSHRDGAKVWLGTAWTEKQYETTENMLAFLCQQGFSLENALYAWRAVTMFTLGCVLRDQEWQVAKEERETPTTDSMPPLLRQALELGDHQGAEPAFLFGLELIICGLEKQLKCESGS .
output: fulfilled
